target: T1, P1bHq
T1 chain: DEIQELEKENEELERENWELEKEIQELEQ
protocol.details: two-hybrid library CCNG1;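 further: natural log of median RNA to DNA barcode read ratio; higher means stronger binding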
reported.metric: interaction score

| binder | result.number |
| --- | --- |
| DKIQQLKQKNQELKQKIQELEWEIQELEQ [4H3041-bN] | 0.154 |

1 = DEIAQLKQKNAELEQKIAELEWENAQLKQ [4H932-bA]
2 = DKNQELKKENEELERKIWELKKKIQELKQ [P10bHq]
3 = DKNQELKKKIEELKRKIWELKKENQELEQ [P12bHq]
4 = DEIQELEKENEELERENWELEKEIQELEQ [P1bHq]
5 = DENQELEKEIEELEREIWELEKKNQELKQ [P11bHq]
Rank ascending by interaction score. A ranking is expressed here by listing the labels in the requested order.
3, 1, 4, 5, 2
(3: -1.45, 1: -0.886, 4: -0.606, 5: 0.41, 2: 1.43)
